# System: MDA-MB-231
# assay_name: In vitro cell growth inhibition assay (MTT)
# Type: cell-based, human
# condition_notes: MDA-MB-231 human breast cancer cell line, 48 h, MTT; read-out: IC50 MDA-MB-231
experimental_readout: pIC50
Numbers only, as −log10 of the molar value.

Take a look at these entries with their results.
C=C1C(=O)N(c2cc(OC)c(OC)c(OC)c2)[C@H]1c1ccc(OC)c(Cl)c1 :: 6.29
C=C1C(=O)N(c2cc(OC)c(OC)c(OC)c2)[C@H]1c1cccc(OC)c1 :: 5.20
C=C1C(=O)N(c2cc(OC)c(OC)c(OC)c2)[C@H]1c1ccc(OC)c(OS(=O)(=O)CCCC)c1 :: 5.14
C=C1C(=O)N(c2cc(OC)c(OC)c(OC)c2)[C@H]1c1ccc(OC)c(NC(=O)c2ccc([N+](=O)[O-])cc2)c1 :: 5.70
COc1ccc([C@H]2[C@H](NS(C)(=O)=O)C(=O)N2c2cc(OC)c(OC)c(OC)c2)cc1O :: 6.60
C=C1C(=O)N(c2cc(OC)c(OC)c(OC)c2)[C@H]1c1ccc(OC)c(OC)c1 :: 5.99
COc1ccc([C@H]2[C@H](Br)C(=O)N2c2cc(OC)c(OC)c(OC)c2)cc1O :: 8.00
C=C1C(=O)N(c2cc(OC)c(OC)c(OC)c2)[C@H]1c1ccc(C(C)C)cc1 :: 5.59

Please look at the following molecule next.
For CCOC(=O)CO[C@H]1C(=O)N(c2cc(OC)c(OC)c(OC)c2)[C@H]1c1ccc(OC)c(O)c1 , what is its reported pIC50?
6.17
